- Test system: CCRF-CEM leukemia
- PROCEDURE_SUMMARY: NCI-60 one-dose screen, 48 h (100 = growth as untreated, 0 = no growth, -100 = all killed)
- MEASUREMENT_CONTEXT: 10 µM
This is part of a sample that, as a whole, favours compounds with a hit. Of some 83,000 tested, about 20% had one in any assay.
QUANTITY_NAME: growth (%)
Report the value in % with no unit label.

Ask | For O=S(=O)(Cc1ccccc1)c1ccccc1 , what is its reported growth?
Reply | 105

Ask | For CNC(=O)c1ccccc1CC1(O)c2ccccc2Oc2ccccc21 , what is its reported growth?
Reply | 56.4

Ask | For CC(C)=NNC(N)=S , what is its reported growth?
Reply | 44.2

Ask | For COc1cc(C2NC(=O)C(C#N)=C(Nc3cccc(C)c3)S2)ccc1O (stereo not given) , what is its reported growth?
Reply | 76

Ask | For O=[N+]([O-])c1ccc(-c2ncc(-c3ccc(Br)cc3)o2)cc1 , what is its reported growth?
Reply | 92.6

Ask | For CCCOC(=O)C(O)c1ccccc1 (stereo not given) , what is its reported growth?
Reply | 88.8

Ask | For CC1C(=O)c2ccccc2CC1C(=O)O (stereo not given) , what is its reported growth?
Reply | 99.1

Ask | For CCC/C=C(/C(C)=O)C(=O)OCC , what is its reported growth?
Reply | 143

Ask | For O=c1[nH]c(O)c(/C=C2/C=Nc3ccccc32)[nH]1 , what is its reported growth?
Reply | 58.2

Ask | For c1ccc2c(c1)Sc1ccccc1S2 , what is its reported growth?
Reply | 97.3

Ask | For CN(C)/N=C/c1ccccc1O , what is its reported growth?
Reply | 100

Ask | For CSC[C@H](NC(=O)COc1cccc2cnccc12)C(=O)NC(Cc1ccccc1)C(O)C(=O)N1CSC[C@H]1C(=O)NC(C)(C)C (stereo not given in full) , what is its reported growth?
Reply | 111

Ask | For OC1CCCc2ccccc21 (stereo not given) , what is its reported growth?
Reply | 94.8

Ask | For CC(C)NC(=O)OCc1c(COC(=O)NC(C)C)c(-c2ccc(Cl)c(Cl)c2)n2c1SCC2 , what is its reported growth?
Reply | 24.9

Ask | For O=c1[nH]nc(SC2CCCCC2)c(=O)[nH]1 , what is its reported growth?
Reply | 106

###

- Tested on: MCF7 breast
- PROCEDURE_SUMMARY: NCI-60 one-dose screen, 48 h (100 = growth as untreated, 0 = no growth, -100 = all killed)
- MEASUREMENT_CONTEXT: 10 µM unless noted
About 83,000 compounds went through this panel and 20% of them were active in at least one assay; those are over-represented in the sample as a whole. The source made the active and inactive calls. How the source made its calls: active means growth percent below 10; inactive means the rest.
QUANTITY_NAME: growth

Ask | For O=C(N/N=C/c1ccccc1O)Nc1nn[nH]n1 , what is its reported growth?
Reply | 88.6% (inactive)

Ask | For O=S(=O)(O)c1ccc(Cl)c(Cl)c1 , what is its reported growth?
Reply | 99.9% (inactive)

Ask | For Cc1c(C(=O)O)c(=O)n(-c2ccccc2)n1C , what is its reported growth?
Reply | 112% (inactive)

Ask | For N=c1c(C(=O)OCc2ccccc2)ncc(CCl)n1O , what is its reported growth?
Reply | 91.9% (inactive)

Ask | For [O-][N+](=Nc1cccc(Cl)c1)c1cccc(Cl)c1 , what is its reported growth?
Reply | 27.6% (inactive)

Ask | For COc1cc(C(N)=O)cc(OC)c1OC , what is its reported growth?
Reply | 105% (inactive)

Ask | For C=CCNc1ccccc1 , what is its reported growth?
Reply | 87.4% (inactive)

Ask | For C[C@@H](c1ccccc1)[C@@H](C(=O)O)c1ccccc1 , what is its reported growth?
Reply | 93.4% (inactive)

Ask | For CC(=O)Cc1ccc(-c2ccccc2)cc1 , what is its reported growth?
Reply | 93.3% (inactive)

###

- Test system: NCI-H322M lung
- PROCEDURE_SUMMARY: NCI-60 one-dose screen, 48 h (100 = growth as untreated, 0 = no growth, -100 = all killed)
- MEASUREMENT_CONTEXT: 10 µM
The panel holds about 83,000 compounds, 20% with a hit somewhere; the sample as a whole holds those more often. Activity calls are given as the source filed them. How the source made its calls: active means growth percent below 10; inactive means the rest.
Field: growth. Provide a value for each of the molecules that follow.

Ask | Kindly state the measured growth obtained for C/C(=N\O)C1(O)CCCCC1 with NCI-H322M lung.
Reply | 87.6% (inactive)

Ask | Kindly state the measured growth obtained for O=C(N/N=C/c1ccccc1O)Nc1nn[nH]n1 with NCI-H322M lung.
Reply | 97% (inactive)

Ask | Kindly state the measured growth obtained for COCCOCCCl with NCI-H322M lung.
Reply | 112% (inactive)

Ask | Kindly state the measured growth obtained for O=C(NCO)c1ccccc1 with NCI-H322M lung.
Reply | 91.6% (inactive)

###

- Tested on: OVCAR-4 ovarian
- PROCEDURE_SUMMARY: NCI-60 one-dose screen, 48 h (100 = growth as untreated, 0 = no growth, -100 = all killed)
- MEASUREMENT_CONTEXT: 10 µM
- Experimental: Growth inhibition of the OVCAR-4 human tumor cell line is measured as a screen for anti-cancer activity. Cells are grown in 96 well plates and exposed to the test compound for 48 hours. Compounds are tested at a single concentration, which is 10^-5 M for most compounds. The reported endpoint is percent growth (GI% or GIPRCNT), where numbers from 0 - 100% represent growth inhibition, and numbers from -100% - 0 represent cell death. For example, a value of 40 represents 60% growth inhibition. […]
This is part of a sample that, as a whole, favours compounds with a hit. Of some 83,000 tested, about 20% had one in any assay. Calls of active or inactive are those of the source. The calls were made as follows: active = growth percent below 10; inactive = the rest.
QUANTITY_NAME: growth

Ask | For COc1ccc(C(C)C=O)cc1 (stereo not given) , what is its reported growth?
Reply | 110% (inactive)

Ask | For COc1ccccc1C1OC2=Nc3cc(C)c(C)cc3NC2C1=O (stereo not given) , what is its reported growth?
Reply | -14.2% (active)

Ask | For S=c1nn[nH]c2ccccc12 , what is its reported growth?
Reply | 114% (inactive)

Ask | For CCC/C=C(/C(C)=O)C(=O)OCC , what is its reported growth?
Reply | 89.8% (inactive)

Ask | For CNC(=S)NC(C)(C)C , what is its reported growth?
Reply | 113% (inactive)

Ask | For Cc1cc(N)c(S(=O)(=O)O)c(N)c1 , what is its reported growth?
Reply | 103% (inactive)

Ask | For CCCC(=O)c1cc(C)ccc1OC , what is its reported growth?
Reply | 106% (inactive)

Ask | For Cc1cc(N2CCC(N3CCCC3)CC2)nc(/N=C(\N)Nc2ccc(Cl)c(Cl)c2)n1 , what is its reported growth?
Reply | -13.2% (active)

Ask | For OCCN(CCO)C(=S)S , what is its reported growth?
Reply | 118% (inactive)

Ask | For O=S(=O)(O)CC(O)CN1CCN(CCO)CC1 (stereo not given) , what is its reported growth?
Reply | 114% (inactive)

###

- System: UO-31 renal
- PROCEDURE_SUMMARY: NCI-60 one-dose screen, 48 h (100 = growth as untreated, 0 = no growth, -100 = all killed)
- MEASUREMENT_CONTEXT: 10 µM
Compounds without any hit were thinned out: in the full panel of roughly 83,000, 20% have a hit.
Hi, to clarify the labels: criterion met covers growth from 90% upward, criterion not met covers anything below 90%.

Ask | Form field: growth at least 90%? Entry: O=C(NCc1ccco1)Nc1c(Cl)cc(Cl)cc1Cl
Reply | criterion not met

Ask | Form field: growth at least 90%? Entry: CNC(=O)c1ccccc1CC1(O)c2ccccc2Oc2ccccc21
Reply | criterion not met

Ask | Form field: growth at least 90%? Entry: CC(C)(O)C#CC#CC(C)(C)O
Reply | criterion met

Ask | Form field: growth at least 90%? Entry: CCC(=O)Oc1ccc(OC)cc1
Reply | criterion not met

Ask | Form field: growth at least 90%? Entry: NC(C(=O)O)c1ccc([N+](=O)[O-])cc1 (centres undefined)
Reply | criterion not met

Ask | Form field: growth at least 90%? Entry: O=C(Nc1cc(-c2ccccc2)[nH]n1)c1ccc(Cl)cc1
Reply | criterion not met

Ask | Form field: growth at least 90%? Entry: O=C(OCC(O)C1OC(c2ccccc2)OC(COC(=O)c2ccccc2)C1O)c1ccccc1 (centres undefined)
Reply | criterion met

Ask | Form field: growth at least 90%? Entry: O=P(O)(O)OCC(O)CO (centres undefined)
Reply | criterion met

Ask | Form field: growth at least 90%? Entry: COC(=O)c1cccc(Br)c1
Reply | criterion met

Ask | Form field: growth at least 90%? Entry: CN(C)c1ccc(C(c2ccc(O)cc2)c2ccc(N(C)C)cc2)cc1
Reply | criterion not met

Ask | Form field: growth at least 90%? Entry: CCCCC(O)c1ccccc1 (centres undefined)
Reply | criterion met

Ask | Form field: growth at least 90%? Entry: [O-][N+](=Nc1cccc(Cl)c1)c1cccc(Cl)c1
Reply | criterion not met

Ask | Form field: growth at least 90%? Entry: O=[N+]([O-])c1ccc(O)c(S(=O)(=O)O)c1
Reply | criterion met

Ask | Form field: growth at least 90%? Entry: O=C(O)c1cc([N+](=O)[O-])ccc1Cl
Reply | criterion not met
